# Tested On: ATP-binding cassette transporter A1 (ABCA1) (mouse, UniProt P41233 1-2261)
# Sequence (P41233 whole entry): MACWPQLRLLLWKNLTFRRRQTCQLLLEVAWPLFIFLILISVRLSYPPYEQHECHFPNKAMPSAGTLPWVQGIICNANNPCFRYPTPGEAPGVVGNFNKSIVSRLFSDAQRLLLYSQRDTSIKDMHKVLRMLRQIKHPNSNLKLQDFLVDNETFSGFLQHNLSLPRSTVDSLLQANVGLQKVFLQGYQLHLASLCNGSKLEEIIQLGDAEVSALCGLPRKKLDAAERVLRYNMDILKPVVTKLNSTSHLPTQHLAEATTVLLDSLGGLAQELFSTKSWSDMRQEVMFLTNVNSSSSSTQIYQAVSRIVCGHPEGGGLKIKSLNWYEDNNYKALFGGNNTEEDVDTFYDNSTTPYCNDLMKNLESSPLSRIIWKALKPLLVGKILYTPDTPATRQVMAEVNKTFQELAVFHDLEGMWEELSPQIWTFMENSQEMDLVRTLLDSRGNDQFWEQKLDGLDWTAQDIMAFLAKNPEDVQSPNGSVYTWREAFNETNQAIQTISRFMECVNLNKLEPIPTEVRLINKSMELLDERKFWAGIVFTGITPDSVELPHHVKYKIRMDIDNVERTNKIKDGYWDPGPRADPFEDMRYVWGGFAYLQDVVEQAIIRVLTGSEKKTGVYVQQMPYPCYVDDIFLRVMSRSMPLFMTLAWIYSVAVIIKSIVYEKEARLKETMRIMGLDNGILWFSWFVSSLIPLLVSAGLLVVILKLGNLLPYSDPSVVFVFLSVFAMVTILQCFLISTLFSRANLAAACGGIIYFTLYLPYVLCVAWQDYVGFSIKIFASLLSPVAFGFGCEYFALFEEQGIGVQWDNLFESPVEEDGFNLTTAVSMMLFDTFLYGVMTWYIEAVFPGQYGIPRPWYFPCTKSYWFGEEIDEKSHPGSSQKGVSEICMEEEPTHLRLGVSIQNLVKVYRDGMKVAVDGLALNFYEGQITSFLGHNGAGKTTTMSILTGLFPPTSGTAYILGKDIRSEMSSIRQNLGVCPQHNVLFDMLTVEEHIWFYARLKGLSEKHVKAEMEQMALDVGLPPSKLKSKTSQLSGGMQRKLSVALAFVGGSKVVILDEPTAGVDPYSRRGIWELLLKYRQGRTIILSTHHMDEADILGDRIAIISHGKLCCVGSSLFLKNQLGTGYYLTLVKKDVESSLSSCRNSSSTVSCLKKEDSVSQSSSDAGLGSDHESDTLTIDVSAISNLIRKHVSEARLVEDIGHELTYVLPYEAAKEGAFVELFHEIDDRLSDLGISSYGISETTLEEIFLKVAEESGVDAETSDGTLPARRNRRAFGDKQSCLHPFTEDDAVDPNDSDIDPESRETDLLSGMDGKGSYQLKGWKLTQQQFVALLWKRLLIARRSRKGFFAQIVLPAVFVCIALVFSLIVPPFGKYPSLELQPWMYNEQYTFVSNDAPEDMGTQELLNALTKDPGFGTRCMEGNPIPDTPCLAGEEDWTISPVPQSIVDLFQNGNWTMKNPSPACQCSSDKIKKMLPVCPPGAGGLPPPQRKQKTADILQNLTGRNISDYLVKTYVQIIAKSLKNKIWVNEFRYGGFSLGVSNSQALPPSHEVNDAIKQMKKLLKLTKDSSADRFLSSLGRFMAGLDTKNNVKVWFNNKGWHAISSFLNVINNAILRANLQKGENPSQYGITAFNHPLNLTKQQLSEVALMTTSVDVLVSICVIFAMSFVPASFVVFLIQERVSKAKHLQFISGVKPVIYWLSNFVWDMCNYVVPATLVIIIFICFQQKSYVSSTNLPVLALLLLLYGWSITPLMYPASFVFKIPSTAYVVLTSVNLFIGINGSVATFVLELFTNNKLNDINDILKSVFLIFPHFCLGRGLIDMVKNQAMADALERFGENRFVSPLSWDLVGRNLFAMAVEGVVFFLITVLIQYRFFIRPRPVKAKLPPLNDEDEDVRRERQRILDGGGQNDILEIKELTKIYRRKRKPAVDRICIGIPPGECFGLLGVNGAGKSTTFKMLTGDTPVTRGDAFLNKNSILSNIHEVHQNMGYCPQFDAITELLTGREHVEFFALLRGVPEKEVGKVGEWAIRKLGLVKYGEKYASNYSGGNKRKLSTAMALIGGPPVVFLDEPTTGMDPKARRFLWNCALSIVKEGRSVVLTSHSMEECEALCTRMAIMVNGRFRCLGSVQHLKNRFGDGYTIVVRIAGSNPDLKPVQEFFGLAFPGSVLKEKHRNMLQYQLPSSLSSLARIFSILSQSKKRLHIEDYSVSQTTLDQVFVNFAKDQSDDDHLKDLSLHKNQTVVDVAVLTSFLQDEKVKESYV
# Measurement Notes: cell-based or functional assay
Where no end group is shown, it is not given here. [ ]: non-standard residue; d: D form. dGly(6-heptenyl) = C=CCCCCC[C@@H](N)C(=O)O; Ala(5-hexenyl) = C=CCCCCC[C@H](N)C(=O)O
Measure Name: ABCA1-dependent cholesterol efflux, % at 100 uM
The reply must contain the numeric value and, after it, the unit.

Ac-PVLDE[Ala(5-hexenyl)]REKLNEELEALKQKLK [CONS[S7H^6]] ... 4%
Ac-PVLDEFREK[Ala(5-hexenyl)]NEELEALKQKLK [CONS[S7H^10]] ... 1.4%

Next:
Q: Look up ABCA1-dependent cholesterol efflux, % at 100 uM of Ac-[dP][dV][dL][dD][dE][dGly(6-heptenyl)][dR][dE][dK][dL][dN][dE][dGly(6-heptenyl)][dL][dE][dA][dL][dK][dQ][dK][dL][dK] [D-CONS[R7H^6,13]] and report it.
Ans: 17.7%
